Values were extracted from the supplement of paper PMC10567573.

Reported protein stability index is given for each of the following variants.
B1: FANCE (parent)
chain: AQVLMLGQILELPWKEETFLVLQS

variants of: B1; assay: protein stability index of a GFP-peptide fusion (GPS, HEK-293T) (PSI 1-6); higher = more stable; settings: c terminus: a fixed tail appended;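 also: lentivirally expressed fusions sorted by FACS into six bins by GFP to DsRed ratio, PSI derived from sequencing read proportions per bin multiplied by bin number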
Output: the number by itself.

Known protein stability index results, listed for orientation:
AQVLMLGQILELPWKEETFLVEQS [L22E] :: 2
AQVSMLGQILELPWKEETFLVLQS [L4S] :: 2

Continue with the variant presented below.
Reported protein stability index for AQVLMLGQILELPWKEETFLSLQS [V21S] : what is it?
2.05
